Quick list: Kd per entry.
- systemTested: T1, eukaryotically produced human IL-6 (human, UniProt P05231 30-212)
- T1 construct: also called eukIL-6; Euk IL-6
- method: SPR; purified Fab; IL-6 coated on CM5 chip;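 further: dissociation rate taken from the wash phase, association rate fitted over the injection phase with analyte concentration and dissociation rate as inputs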
Report the figure in nM without appending any unit label.

| binder | unitAbbreviation | Kd |
| --- | --- | --- |
| Fab 20A4 (Fab, V domains shown, Fab) VH: EVQLQESGPGLVKPSQTLSLTCTVSGGSITTRYYAWSWIRQPPGKGLEWMGVIDYDGDTYYSPSLKSRTSISWDTSKNQFSLQLSSVTPEDTAVYYCARDPDVVTGFHYDYWGQGTQVTVSS VL: LNFMLTQPPSVSGTLGKTVTISCAGTSSDIGGYNYVSWYQQLPGTAPKLLIHRVSTRASGIPDRFSGSKSGNTASLTISGLRSEDEANYYCASYRNFNNAVFGGGTQLTVLG | nM | 0.81 |

Query block: May I ask what Kd has been recorded for Fab 18C9 (Fab, V domains shown, Fab) VH: EVQLVESGGGLVQPGGSLRLSCAASGFTFSRNAMSWVRQAPGKGLEWVSAINSGGGSTSYADSVKGRFTISRDNAKNTLYLQMNSLKPEDTAVYYCAKEGYTGWKDPMYDYWGQGTQVTVSS VL: LNFMLTQPSALSVTLGQTAKITCQGGSLGSRYAHWYQQKPGQAPVLVIYDDDSRPSGIPERFSGSSSGGRATLTISGAQAEDDGDYYCQSADSSGNASVFGGGTHLTVLG ?
Result block: 2.4
